Catalogue of IC50 values
System: A549 (lung carcinoma)
Assay: CCK-8 anti-proliferative assay, A549
Assay type: cell-based
Settings: Homo sapiens, CCK-8 assay, average of three independent experiments in triplicate
Field format: number, assumed µM, no unit text.

Below are worked cases with known answers.
>  <compound>
CC1(C)[C@@H](O[C@H]2O[C@H](C(=O)O)[C@@H](O)[C@H](O)[C@H]2O[C@@H]2O[C@H](C(=O)O)[C@@H](O)[C@H](O)[C@H]2O)CC[C@]2(C)[C@H]3C(=O)C=C4[C@@H]5C[C@@](C)(C(=O)O)CC[C@]5(C)CC[C@@]4(C)[C@]3(C)CC[C@@H]12 [18β-GA, Glycyrrhizin]

>  <IC50 / µM>
51.9

$$$$
>  <compound>
CC1(C)[C@@H](O[C@@H]2O[C@H](C(=O)O)[C@@H](O)[C@H](O)[C@H]2O)CC[C@]2(C)[C@H]3C(=O)C=C4[C@H]5C[C@@](C)(C(=O)O)CC[C@]5(C)CC[C@@]4(C)[C@]3(C)CC[C@@H]12 [18α-GAMG]

>  <IC50 / µM>
15.8

$$$$
>  <compound>
C#Cc1cccc(Nc2ncnc3cc(OCCOC)c(OCCOC)cc23)c1 [Erlotinib, reference compound]

>  <IC50 / µM>
0.13

$$$$
>  <compound>
CC1(C(=O)O)CCC2(C)CCC3(C)C(=CC(=O)C4C5(C)CCC(OC6OC(C(=O)O)C(O)C(O)C6OC6OC(C(=O)O)C(O)C(O)C6O)C(C)(C)C5CCC43C)C2C1 (stereo not drawn) [18α-GA, 18α-Glycyrrhizin]

>  <IC50 / µM>
41.6

$$$$

Proceed to the following item.
Notebook: CC1(C)[C@@H](O[C@@H]2O[C@H](C(=O)O)[C@@H](O)[C@H](O)[C@H]2O)CC[C@]2(C)[C@H]3C(=O)C=C4[C@@H]5C[C@@](C)(C(=O)O)CC[C@]5(C)CC[C@@]4(C)[C@]3(C)CC[C@@H]12 [18β-GAMG] , IC50 read as 21.6
